# assayTarget: Hsσ1-R (Homo sapiens, UniProt Q99720)
# Sequence (Q99720 whole entry): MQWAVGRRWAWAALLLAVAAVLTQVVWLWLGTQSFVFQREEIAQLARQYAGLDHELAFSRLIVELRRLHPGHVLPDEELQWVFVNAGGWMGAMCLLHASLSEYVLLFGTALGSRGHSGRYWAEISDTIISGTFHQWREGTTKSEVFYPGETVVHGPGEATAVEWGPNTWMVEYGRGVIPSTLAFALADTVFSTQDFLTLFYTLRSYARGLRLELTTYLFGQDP
# assayText: Fluorescence titration (intrinsic tryptophan fluorescence quenching) of purified Hsσ1-R
# assayContext: read-out: KD2; low-affinity site, two-site model, 25 °C
Item-by-item account of Kd
Field format: number, assumed µM, no unit text.

[[record]]
molecule = "CC(=O)C1=CC[C@H]2[C@@H]3CCC4=CC(=O)CC[C@]4(C)[C@H]3CC[C@]12C [16,17-didehydroprogesterone]"
recordedvalue = 15.8


Kindly review the next molecule as well.
Need Kd of COc1cc(C(C)=O)ccc1OCCCN1CCC(c2noc3cc(F)ccc23)CC1 , thanks.
33.1

* * *

# assayTarget: Hsσ1-R (Homo sapiens, UniProt Q99720)
# assayText: Fluorescence titration (intrinsic tryptophan fluorescence quenching) of purified Hsσ1-R
# assayContext: read-out: KD1; high-affinity site, two-site model, 25 °C
quantityMeasured: Kd
Don't forget the unit after the number, please.

Need Kd of CC(=O)C1=CC[C@H]2[C@@H]3CCC4=CC(=O)CC[C@]4(C)[C@H]3CC[C@]12C [16,17-didehydroprogesterone] , thanks.
0.01 µM

Provenance of the data: paper PMC10094450
